Measured values drawn from ChEMBL document CHEMBL1938321 for this set.

# System: Mycobacterium tuberculosis H37Rv
# Test summary: Inhibition of Mycobacterium tuberculosis H37Rv chorismate mutase expressed in Escherichia coli assessed as inhibition of prephenate formation at 50 uM after 1 to 5 mins by spectrophotometry
Reported metric: inhibition (%)

>>> print(df.to_string())
                            chemical_string  experimental_value
0           O=c1c2ccccc2nnn1-c1ccc2ccccc2c1                  40
1    CCCc1nn(C)c2c(=O)n(-c3cccc(Cl)c3)nnc12                  30
2    O=c1c2c3c(sc2nnn1-c1ccc2ccccc2c1)CCCC3                  37
3  CCCc1nn(C)c2c(=O)n(-c3ccc4ccccc4c3)nnc12                  61
4     CCCc1nn(C)c2c(=O)n(-c3ccc(F)cc3)nnc12                  24
5       O=c1c2c3c(sc2nnn1-c1ccc(F)cc1)CCCC3                  25
6                 O=c1c2ccccc2nnn1-c1ccccc1                  12
7        CCCc1nn(C)c2c(=O)n(-c3ccccc3)nnc12                  10
